Cited source for all entries: the kinase profiling compilation of Christmann-Franck et al. (2016)

List of kinase still bound, per cent of control values.
biological target: BLK (human); assay: KINOMEscan competition binding; settings: compound 10.0 µM
Unit % implied. Number only.

| COMPOUND STRING | kinase still bound, per cent of control / % |
| --- | --- |
| Cn1c(=O)n(-c2ccc(C(C)(C)C#N)cc2)c2c3cc(-c4cnc5ccccc5c4)ccc3ncc21 | 100 |
| CN(C)C/C=C/C(=O)Nc1cccc(Nc2ncc3c(n2)N(C)c2ccccc2C(=O)N3C)c1 | 0.7 |
| Cc1ccc2nc(NCCN)c3ncc(C)n3c2c1 | 100 |

Request: Report kinase still bound, per cent of control for O=C(O)c1ccc(Nc2ncc3c(n2)-c2ccc(Cl)cc2C(c2c(F)cccc2F)=NC3)cc1 please.
Result: 0.7
